Test system: KM12C cells
Experiment: Cytotoxicity MTS assay, KM12C
Type: cell-based
Details: Homo sapiens, 72 hours
pIC50: −log10 of the molar value.
Respond with met for pIC50 values of 8 and above, not met for values below.

Confirm if pIC50 reported for the compound CCOc1ccn(-c2cccc(F)c2)c(=O)c1C(=O)Nc1ccc(Oc2ccnc3cc(-c4ccc(CNCCOC)cn4)sc23)c(F)c1.Cl [Example 14, Hydrochloride] is 8 or above. not met

Confirm if pIC50 reported for the compound Cc1ccc(C(=O)Nc2ccc(Oc3cc4cnn(C)c4cc3-c3cn[nH]c3)c(F)c2)c(=O)n1-c1ccc(F)cc1 [Comp. Ex. 3, reference compound] is 8 or above. not met

Confirm if pIC50 reported for the compound CCOc1ccn(-c2ccccc2)c(=O)c1C(=O)Nc1ccc(Oc2ccnc3cc(-c4ccc(CNCCOC)cn4)sc23)c(F)c1.Cl [Example 1, hydrochloride] is 8 or above. not met

Confirm if pIC50 reported for the compound CCOc1ccn(-c2ccccc2)c(=O)c1C(=O)Nc1ccc(Oc2ccnc3cc(-c4ccc(CN5CCOCC5)cn4)sc23)c(F)c1.Cl [Example 32, Hydrochloride] is 8 or above. met
